Molecular target: KRAS G12D (Homo sapiens, UniProt P01116, G12D)
Sequence (P01116 1-188 isoform P01116-2 G12D): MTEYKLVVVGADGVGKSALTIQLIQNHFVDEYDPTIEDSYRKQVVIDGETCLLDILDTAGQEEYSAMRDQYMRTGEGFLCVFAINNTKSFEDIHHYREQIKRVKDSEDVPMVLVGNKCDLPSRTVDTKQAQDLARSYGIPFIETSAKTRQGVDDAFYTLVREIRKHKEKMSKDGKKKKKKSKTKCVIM
Experiment: GDP-GTP exchange assay (bodipy-GDP/GppNHp, SOS1), KRAS G12D
Type: biochemical
Conditions: KRAS_G12D exchange assay IC50; 4 h pre-incubation; value for the most potent isomer quoted
assay_endpoint: G12D_exchange

Requested field: G12D_exchange. Item: Cc1nc2c(F)c(-c3cccc(Cl)c3Cl)c(CCC#N)cc2c2c1cc([C@@H](C)N1CCCN(c3ccccc3)C1=O)n2[C@H]1[C@H]2CN[C@@H]1C2
†

Now consider Cc1c(Cl)cc(O)cc1-c1c(CCC#N)cc2c(nc(C)c3cc([C@@H](C)N4CCCN(c5ccncc5)C4=O)n([C@H]4[C@H]5CN[C@@H]4C5)c32)c1F and answer again.
†

Now consider Cc1nc2c(F)c(-c3cccc(Cl)c3Cl)c(CCC#N)cc2c2c1cc([C@@H](C)N1CCCN(c3cc[nH]c(=O)c3)C1=O)n2[C@H]1[C@H]2CN[C@@H]1C2 and answer again.
†

Origin of measurements: patent US20240358702A1
